systemUnderTest: DRB5*0101 (human, UniProt P01903 26-216, limits assumed)
assayRemarks: competition vs 125I probe peptide, purified MHC II
endpointName: IC50 (nM)
State just the number; it will be interpreted in nM.

## Input Item under review: DTFRKQFRVYSNFLR . Reported IC50?
## Output 4.9
